Hey, just so you know, these numbers are from ChEMBL document CHEMBL3297699.

# ASSAY_NOTES: Cytotoxicity against human MT4 cells after 96 hrs by MTT assay
# Format: cell-based
Please respond with Met when measured CC50 at 96 h is strictly beneath 40 µM, and with Not met in all other cases.

Data request: Lab note: confirm whether the reported CC50 at 96 h for this compound is below 40 µM, equality not counting. compound: CCc1c(C(F)c2cc(C)cc(C)c2)n(COCc2ccc(I)cc2)c(=O)[nH]c1=O (configuration not stated)
Data returned: Not met

Data request: Lab note: confirm whether the reported CC50 at 96 h for this compound is below 40 µM, equality not counting. compound: CCOCn1c(Cc2ccccc2)c(C(C)C)c(=O)[nH]c1=O
Data returned: Not met

Data request: Lab note: confirm whether the reported CC50 at 96 h for this compound is below 40 µM, equality not counting. compound: C=CCOCn1c(C(F)c2cc(C)cc(C)c2)c(CC)c(=O)[nH]c1=O (configuration not stated)
Data returned: Not met

Data request: Lab note: confirm whether the reported CC50 at 96 h for this compound is below 40 µM, equality not counting. compound: CC(C)(C)NC(=O)[C@@H]1C[C@@H]2CCCC[C@@H]2CN1C[C@@H](O)[C@H](Cc1ccccc1)NC(=O)[C@H](CC(N)=O)NC(=O)c1ccc2ccccc2n1
Data returned: Met

Data request: Lab note: confirm whether the reported CC50 at 96 h for this compound is below 40 µM, equality not counting. compound: Cc1c(C(C)c2c(F)cccc2F)nc(N(C)C)[nH]c1=O (configuration not stated)
Data returned: Not met

Data request: Lab note: confirm whether the reported CC50 at 96 h for this compound is below 40 µM, equality not counting. compound: Cc1ccnc2c1NC(=O)c1cccnc1N2C1CC1
Data returned: Not met

Data request: Lab note: confirm whether the reported CC50 at 96 h for this compound is below 40 µM, equality not counting. compound: CCc1c(C(F)c2cc(C)cc(C)c2)n(COCc2ccc(C#CCO)cc2)c(=O)[nH]c1=O (configuration not stated)
Data returned: Met

Data request: Lab note: confirm whether the reported CC50 at 96 h for this compound is below 40 µM, equality not counting. compound: Cc1cc(C)c(Nc2ccnc(Nc3ccc(C#N)cc3)n2)c(C)c1
Data returned: Met

Data request: Lab note: confirm whether the reported CC50 at 96 h for this compound is below 40 µM, equality not counting. compound: CCc1c(C(F)c2cc(C)cc(C)c2)n(COCc2ccc(C#CC=O)cc2)c(=O)[nH]c1=O (configuration not stated)
Data returned: Met

Data request: Lab note: confirm whether the reported CC50 at 96 h for this compound is below 40 µM, equality not counting. compound: CCOCn1c(C(F)c2cc(C)cc(C)c2)c(CC)c(=O)[nH]c1=O (configuration not stated)
Data returned: Not met

Data request: Lab note: confirm whether the reported CC50 at 96 h for this compound is below 40 µM, equality not counting. compound: CCc1c(C(F)c2cc(C)cc(C)c2)[nH]c(=O)n(COCc2ccc(I)cc2)c1=O (configuration not stated)
Data returned: Not met

====

# Tested on: Human immunodeficiency virus 1
# ASSAY_NOTES: Antiviral activity against MC1220-resistant HIV1 harboring RT 100I, 179D, 181C mutant infected in human MT4 cells assessed as inhibition of virus-induced cytopathogenicity after 4 days by MTT assay
# Assay type: functional, organism-based
# EXPERIMENTAL_CONDITIONS: Human immunodeficiency virus 1, MT4, 96 h
READOUT: EC50 (µM)
Express the result in µM but write the number alone.

Data request: I'm curious: which EC50 was measured for CC(C)(C)NC(=O)[C@@H]1C[C@@H]2CCCC[C@@H]2CN1C[C@@H](O)[C@H](Cc1ccccc1)NC(=O)[C@H](CC(N)=O)NC(=O)c1ccc2ccccc2n1 tested on Human immunodeficiency virus 1?
Data returned: 0.01

Data request: I'm curious: which EC50 was measured for O=C1Nc2ccc(Cl)cc2[C@@](C#CC2CC2)(C(F)(F)F)O1 tested on Human immunodeficiency virus 1?
Data returned: 0.1

Data request: I'm curious: which EC50 was measured for Cc1c(C(C)c2c(F)cccc2F)nc(N(C)C)[nH]c1=O (stereo not drawn) tested on Human immunodeficiency virus 1?
Data returned: 3

Data request: I'm curious: which EC50 was measured for Cc1cn([C@H]2C[C@H](N=[N+]=[N-])[C@@H](CO)O2)c(=O)[nH]c1=O tested on Human immunodeficiency virus 1?
Data returned: 0.009

Data request: I'm curious: which EC50 was measured for Cc1cc(C)c(Nc2ccnc(Nc3ccc(C#N)cc3)n2)c(C)c1 tested on Human immunodeficiency virus 1?
Data returned: 0.1

Data request: I'm curious: which EC50 was measured for CCc1c(C(F)c2cc(C)cc(C)c2)n(COCc2ccc(C#CCO)cc2)c(=O)[nH]c1=O (stereo not drawn) tested on Human immunodeficiency virus 1?
Data returned: 0.04

Data request: I'm curious: which EC50 was measured for Cc1cc(C#N)cc(C)c1Oc1nc(Nc2ccc(C#N)cc2)nc(N)c1Br tested on Human immunodeficiency virus 1?
Data returned: 0.03

Data request: I'm curious: which EC50 was measured for Cc1ccnc2c1NC(=O)c1cccnc1N2C1CC1 tested on Human immunodeficiency virus 1?
Data returned: 4
